Here, each record is paired with measured pIC50 data.
# system name: full-length beta-Catenin (Uniprot ID P35222) (Homo sapiens (Human)) (UniProt P35222)
# assay name: fluorescence polarization competition; displacement of 5FAM-TCF4(10-53) from full-length beta-catenin
Starred links: 1 amine or outer side, 2 acyl side, 3 side chain; linkers in the order of their positions; H or OH if unused. Positions of bridges follow the written chain, without caps; N, C: chain ends. Non-standard residues stand in square brackets, D forms with d. Primed or numbered codes have the meaning given here. PyrS2″ = (S)-3-amino-1-((pent-4-en-1-yloxy)carbonyl)pyrrolidine-3-carboxylic acid (stapling residue), C=CCCCOC(=O)N1CC[C@@](N[*:1])(C(=O)[*:2])C1; B5(4) = 2,2-bis(4-pentenyl)glycine = 2-amino-2-(pent-4-en-1-yl)hept-6-enoic acid (stitching residue), C=CCCCC(CCCC=C)(N[*:1])C(=O)[*:2]; B5(5) = 2,2-bis(4-pentenyl)glycine, 2-amino-2-(pent-4-en-1-yl)hept-6-enoic acid (stitching residue), C=CCCCC(CCCC=C)(N[*:1])C(=O)[*:2]; PyrS2 = (S)-3-amino-1-((pent-4-en-1-yloxy)carbonyl)pyrrolidine-3-carboxylic acid, C=CCCCOC(=O)N1CC[C@@](N[*:1])(C(=O)[*:2])C1; B5(27) = 2-amino-2-(pent-4-en-1-yl)hept-6-enoic acid (two alkene side-chain arms), C=CCCCC(CCCC=C)(N[*:1])C(=O)[*:2]; MePpzAsn = (S)-2-amino-4-(4-methylpiperazin-1-yl)-4-oxobutanoic acid, CN1CCN(C(=O)C[C@H](N[*:1])C(=O)[*:2])CC1; MePpzAbu = (S)-2-amino-4-(4-methylpiperazin-1-yl)butanoic acid, CN1CCN(CC[C@H](N[*:1])C(=O)[*:2])CC1; 4TriA = (S)-2-amino-3-(1H-1,2,3-triazol-4-yl)propanoic acid, O=C([C@H](Cc1c[nH]nn1)N[*:1])[*:2]; MorphAsn = (S)-2-amino-4-morpholino-4-oxobutanoic acid, O=C(C[C@H](N[*:1])C(=O)[*:2])N1CCOCC1; B5(3) = 2,2-bis(4-pentenyl)glycine (stitching residue), C=CCCCC(CCCC=C)(N[*:1])C(=O)[*:2]; Bta = N[C@@H](Cc1csc2ccccc12)C(=O)O; αAllylPro = C=CC[C@@]1(C(=O)O)CCCN1; tBuAla = CC(C)(C)C[C@H](N)C(=O)O; 3Thi = N[C@@H](Cc1ccsc1)C(=O)O
Scale note: pIC50 = -log10(concentration in M).

Solved cases (2 shown):
>>> observed_value("Ac-[αAllylPro]D[tBuAla][B5(3)]DDAAF[MorphAsn][PyrS2″][3Thi][Bta]Q-NH2 (staple 1-4, 4-11) [I-1487]")
8.15
>>> observed_value("Ac-[αAllylPro]D[tBuAla][B5(3)]DD[MePpzAsn]AFL[PyrS2″][3Thi][Bta]Q-NH2 (staple 1-4, 4-11) [I-1484]")
7.52

## Input Fill blank: measured pIC50 of the binder Ac-[αAllylPro]DS[B5(5)]DDAAFL[PyrS2″][3Thi][Bta]Q-NH2 (staple 1-4, 4-11) [I-1513: Ac-PL3-Asp-Ser-B5-Asp-Asp-Ala-Ala-Phe-Leu-PyrS2-3Thi-BztA-Gln-NH2] is ____.
## Output 7.68

## Input Fill blank: measured pIC50 of the binder Ac-[αAllylPro]D[tBuAla][B5(4)]DDA[MePpzAbu]FL[PyrS2][3Thi][Bta]Q-NH2 (staple 1-4, 4-11) [I-1506: Ac-PL3-Asp-Npg-B5-Asp-Asp-Ala-MePpzAbu-Phe-Leu-PyrS2-3Thi-BztA-Gln-NH2] is ____.
## Output 7.05

## Input Fill blank: measured pIC50 of the binder Ac-[αAllylPro]D[tBuAla][B5(27)]DDAAFL[PyrS2][3Thi][Bta][4TriA]-NH2 (staple 1-4, 4-11) [I-1498] is ____.
## Output 7.32
